Parameter viability: see the listing below.
Test: growth inhibitors of H69AR lung tumor, primary screen, human, duplicate replicates (AID 580);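 note: 100% = mean luminescence of untreated wells and 0% = no signal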
Conditions: H69AR lung tumor cells viability, ATP luminescence, 72 h; at 10 µM; stronger effect = lower value
# output: bare number, implied unit %

# Compound, Unit Symbol, viability
rows = [
    ("CNCCCC1c2ccccc2C=Cc2ccccc21", "%", 92),
]

Task item: May I ask what viability has been recorded for O=C1CC(c2ccco2)CC(O)=C1C=NCC1NCCc2ccccc21 (centres undefined) ?
Reply: 90.7

Task item: Try this compound too: CCc1nnc(NC(=O)c2ccc(-c3cccc(C(F)(F)F)c3)o2)s1
Reply: 91.4

Task item: Try this compound too: CCOC(=O)CSc1nc2ccccc2c(=O)n1NC(=O)c1ccccc1
Reply: 87.4

---

Experiment: reversal of MRP1-mediated doxorubicin resistance, pilot screen, H69AR cells, doxorubicin co-treatment (AID 601)
Conditions: H69AR cells, CellTiter-Glo, 72 h; compound alone cytotoxicity; at 10 µM
Reported Metric: viability (%)
# output: bare number, implied unit %

A selection of reference data follows.
# Molecule, viability / %
data = [
    ("O=C(O)CSc1ccc2ccccc2n1", 90),
    ("Nn1c(SCC(=O)Nc2ccc(S(=O)(=O)N3CCCC3)cc2)nnc1C(F)(F)F", 90.8),
    ("Cn1c2c(c(=O)n(C)c1=O)C(NC(=O)C(C)(C)C)(C(F)(F)F)C(=O)N2 (centres undefined)", 90.3),
    ("COc1ccccc1NC(=O)CSc1nnc(Cn2nnc(-c3ccccc3)n2)n1-c1ccccc1", 87.4),
    ("COc1ccc(CN2C(=O)[C@@H]3C(c4ccc(F)cc4)=NO[C@@H]3C2=O)cc1", 89.1),
]

Task item: May I ask what viability has been recorded for Cc1cccc(-n2ncc3c(NCc4ccccn4)ncnc32)c1 ?
Reply: 89.6

Task item: Try this molecule too: CCOc1ccc(NC(=O)CN2CCN(CC(=O)c3ccc(OCC)cc3)CC2)cc1
Reply: 89.3

Task item: Try this molecule too: CCOc1cccc2cc(C(=O)N3CCN(C/C=C/c4ccccc4)CC3)c(=O)oc12
Reply: 91.4

Task item: Try this molecule too: CS(=O)(=O)NCC(c1cccnc1)N1CCN(c2ccc(F)cc2)CC1 (centres undefined)
Reply: 92.2

Task item: Try this molecule too: CCC[C@@H]1C[C@@H](C(=O)N[C@H]([C@@H](C)O)[C@H]2O[C@H](SC)[C@H](O)[C@@H](O)C2O)N(C)C1 (some centres undefined)
Reply: 89.7

Task item: Try this molecule too: COc1ccccc1NC(=O)Cc1noc(CSc2cc(C)c3ccccc3n2)n1
Reply: 92.5

Task item: Try this molecule too: CSc1ccccc1NC(=O)c1noc2c1CCC2
Reply: 90.2

Task item: Try this molecule too: CCC1CCc2c(sc3ncnc(N4CCOCC4)c23)C1 (centres undefined)
Reply: 89.3

Task item: Try this molecule too: Cc1ccc(-c2ccc(=O)n(CCC(=O)NCCN3CCCCC3C)n2)cc1 (centres undefined)
Reply: 91.3

---

Assay: reversal of MRP1-mediated doxorubicin resistance, pilot screen, H69AR cells, doxorubicin co-treatment (AID 601)
Conditions: H69AR cells + 2 uM doxorubicin, CellTiter-Glo, 72 h; measured here: viability with 2 uM doxorubicin; at 10 µM; stronger effect = lower value
Reported Metric: viability (%)
# output: bare number, implied unit %

A selection of reference data follows.
# Molecule, Unit Symbol, viability
measured = [
    ("CN1CCN(C(=O)NC2CCCN2S(=O)(=O)c2ccc(Cl)cc2)CC1 (stereo not drawn)", "%", 89.6),
    ("c1ccc(OCc2nc3ccccc3[nH]2)cc1", "%", 90.6),
]

Next:
Task item: May I ask what viability has been recorded for O=C(CN1CCOCC1)Nc1cccc(C(=O)Nc2cccc(C(F)(F)F)c2)c1 ?
Reply: 92.4
